Hello, the source for this data is patent US9365522B2, in case you need it.

Here, each record is paired with measured IC50 data.
target: ligand binding domain of human ROR gamma (Homo sapiens, UniProt P51449); construct: NM_001001523; expressed in transfected cells; host or cells: HEK293T; assay: ROR gamma reporter gene assay (GAL4-RORγ LBD luciferase, Dual-Glo); type: cell-based; conditions: HEK293T cells transfected with pM-ROR gamma, 8 concentrations 3.5 nM to 10.5 μM, 24 h incubation; read-out: result (pIC50, inhibition of RORγ transcriptional activity) (converted)
Return type: number; implicit unit pM.

Sample answers from the record:
O=C(CN(CC1(C(F)(F)F)CC1)C(=O)c1cnn([C@H]2CC[C@H](C(=O)O)CC2)c1C(F)(F)F)c1c(Cl)cncc1Cl [Example 150] ... 53700
CC(C)(C)CN(CC(=O)c1c(Cl)cccc1Cl)C(=O)c1cnn([C@H]2CC[C@](C)(C(=O)O)CC2)c1Cl [Example 358] ... 61700
CC1(C)[C@@H]2C[C@H](N(C[C@@H](O)c3c(F)cncc3Cl)C(=O)c3cnn([C@H]4CC[C@](C)(C(=O)O)CC4)c3C(F)(F)F)C[C@@H]21 [Example 384] ... 347000
COCC(C)N(CC(=O)c1c(Cl)cncc1Cl)C(=O)c1cnn([C@H]2CC[C@](C)(C(=O)O)CC2)c1C(F)(F)F (some centres unmarked) [Example 313] ... 1.55e+06
CC(C)(C)O[C@H]1C[C@H](N(CC(=O)c2c(Cl)cncc2Cl)C(=O)c2cnn([C@H]3CC[C@H](C(=O)O)CC3)c2C(F)(F)F)C1 [Example 176] ... 2.57e+06

Asked: For the compound CC(CN(C(=O)c1cnn([C@H]2CC[C@](C)(C(=O)O)CC2)c1C(F)(F)F)[C@H]1C[C@@H]2[C@H](C1)C2(C)C)c1c[nH]c2cccc(Cl)c12 (some centres unmarked) [Example 377] , what IC50 is on record?
Given back: 437000

Asked: Given CC1(C)CCC(N(CC(=O)c2c(Cl)cc(F)cc2Cl)C(=O)c2cnn(C34CCC(C(=O)O)(CC3)CC4)c2C(F)(F)F)CC1 [Example 230] , state its recorded IC50.
Given back: 6610

Asked: Quick one: IC50 for CC1(C)CCC(N(CC(=O)c2c(Cl)cc(Cl)cc2Cl)C(=O)c2cnn([C@H]3CC[C@](C)(C(=O)O)CC3)c2C(F)(F)F)CC1 [Example 191] ?
Given back: 8910

Asked: Bench note: what IC50 did CC1(C)CCC(N(CC(=O)c2c(Cl)cccc2C(F)(F)F)C(=O)c2cnn(C34CCC(C(=O)O)(CC3)CC4)c2C(F)(F)F)CC1 [Example 242] show?
Given back: 31600

Asked: Given the entry O=C(CN(Cc1ccc(F)cc1)C(=O)c1cnn([C@H]2CC[C@H](C(=O)O)C2)c1C(F)(F)F)c1c(Cl)cncc1Cl [Example 92] , report its measured IC50.
Given back: 155000

Asked: What value of IC50 has been reported for the following compound? CC1(C)[C@@H]2C[C@H](N(C[C@@H](O)c3ccccc3C(F)(F)F)C(=O)c3cnn([C@H]4CC[C@](C)(C(=O)O)CC4)c3C(F)(F)F)C[C@@H]21 [Example 373]
Given back: 3.39e+06

Asked: I'd like to know its IC50. The compound in question is CCC(C)(C)CN(CC(=O)c1c(Cl)cc(F)cc1Cl)C(=O)c1cnn(C23CCC(C(=O)O)(CC2)CC3)c1C(F)(F)F [Example 309]
Given back: 11200

Asked: Can you share its IC50? I mean this compound: Cc1cc(Cl)c(C(=O)CN(C(=O)c2cnn([C@H]3CC[C@](C)(C(=O)O)CC3)c2C(F)(F)F)C2CCC(C)(C)CC2)c(Cl)c1 [Example 227]
Given back: 3980

Asked: Which IC50 is listed for CC12CCC(CN(CC(=O)c3c(Cl)cncc3Cl)C(=O)c3cnn([C@H]4CC[C@](C)(C(=O)O)CC4)c3C(F)(F)F)(CC1)C2 [Example 267] ?
Given back: 13500

Asked: Entry O=C(CN(Cc1cc(F)cc(F)c1)C(=O)c1cnn([C@H]2CC[C@H](C(=O)O)CC2)c1C1CC1)c1c(Cl)cncc1Cl [Example 17] : reported IC50 = ?
Given back: 24500

Asked: GET /values?readout=IC50&item= O=C(CN(CC1(F)CCCC1)C(=O)c1cnn(C23CCC(C(=O)O)(CC2)CC3)c1C(F)(F)F)c1c(Cl)cncc1Cl [Example 299]
Given back: 20900

Asked: // query IC50 value for entry O=C(CN(CCC1CC1)C(=O)c1cnn([C@H]2CC[C@H](C(=O)O)CC2)c1C(F)(F)F)c1c(Cl)cncc1Cl [Example 34]
Given back: 1.35e+06

Asked: # query: IC50 of entry N#Cc1cccc(CN(CC(=O)c2c(Cl)cncc2Cl)C(=O)c2cnn([C@H]3CC[C@H](C(=O)O)CC3)c2C(F)(F)F)c1 [Example 170]
Given back: 178000

* * *

target: ligand binding domain of human ROR gamma (Homo sapiens, UniProt P51449); construct: NM_001001523; expressed in transfected cells; host or cells: HEK293T; test: ROR gamma reporter gene assay (GAL4-RORγ LBD luciferase, Dual-Glo); format: cell-based; details: HEK293T cells transfected with pM-ROR gamma, 8 concentrations 3.5 nM to 10.5 μM, 24 h incubation; read-out: result (pIC50, inhibition of RORγ transcriptional activity) (converted)
Listed compounds paired with reported IC50
Provide the reading as a plain figure in pM.

CCC(F)(CC)CN(CC(=O)c1c(Cl)cncc1Cl)C(=O)c1cnn([C@H]2CC[C@](C)(C(=O)O)CC2)c1C(F)(F)F ... 20400
COc1cccc(Cl)c1C(=O)CN(CC1CC(C)(C)C1)C(=O)c1cnn(C23CCC(C(=O)O)(CC2)CC3)c1C(F)(F)F ... 20000
CC1(C)[C@@H]2C[C@H](N(CC(N)c3c(F)cccc3Cl)C(=O)c3cnn([C@H]4CC[C@](C)(C(=O)O)CC4)c3C(F)(F)F)C[C@@H]21 (stereo partly drawn) ... 776000

Proceed to the following item.
Asked: For the record CC1(C)CCC(N(CC(=O)c2c(Cl)cccc2Cl)C(=O)c2cnn([C@H]3CC[C@](C)(C(=O)O)CC3)c2C(F)(F)F)CC1 , what value of IC50 is listed for ligand binding domain of human ROR gamma (Homo sapiens, UniProt P51449)?
Given back: 9120

* * *

Target: human RORγ-LBD (Homo sapiens, UniProt P51449)
Construct: made in house; host or cells: E. coli (BL-21)
Sequence (P51449 262-518): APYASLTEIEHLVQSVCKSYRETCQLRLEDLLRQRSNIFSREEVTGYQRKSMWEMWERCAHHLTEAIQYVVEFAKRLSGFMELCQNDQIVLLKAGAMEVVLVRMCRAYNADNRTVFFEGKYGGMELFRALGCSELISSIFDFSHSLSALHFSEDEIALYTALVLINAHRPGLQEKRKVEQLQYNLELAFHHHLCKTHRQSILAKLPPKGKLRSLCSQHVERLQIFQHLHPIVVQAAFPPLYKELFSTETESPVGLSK
Assay: ROR gamma coactivator peptide recruitment Alphascreen assay (RORγ-LBD binding to GRIP1 coactivator peptide)
Format: biochemical
Conditions: 5 nM human RORγ-LBD, 30 nM 7-β-hydroxycholesterol, 50 nM biotinylated GRIP1 coactivator peptide, overnight incubation at room temperature; read-out: result (pIC50, RORγ coactivator peptide recruitment Alphascreen assay) (converted)
Excerpt: Alphascreen™ is a bead-based amplified homogenous luminescent proximity assay that can be used for measuring the effect of compounds on protein-protein interactions. When biological interactions bring donor and acceptor beads into close proximity, reactive oxygen, generated upon laser excitation of the donor beads, initiates a luminescence/fluorescence cascade in the acceptor beads that leads to a highly amplified signal that can be measured as light in the 520-620 nm range. […]
Entries whose IC50 is below 30 nM take t; entries at or above 30 nM take f.

The following compounds have reported results that may help.
CC(C)(F)CN(CC(=O)c1c(Cl)cncc1Cl)C(=O)c1cnn([C@H]2C[C@@]3(C[C@H](C(=O)O)C3)C2)c1C(F)(F)F (stereo partly drawn) ... t
Cc1cc(C)n(CCN(Cc2ccc(Cl)cc2)C(=O)c2cnn([C@H]3CC[C@H](C(=O)O)CC3)c2C(F)(F)F)c(=O)c1 ... f
C[C@@H]1CC[C@@H](CN(CC(=O)c2c(Cl)cncc2Cl)C(=O)c2cnn([C@H]3CC[C@](C)(C(=O)O)CC3)c2C(F)(F)F)O1 ... f

Asked: Item C=CC[C@@H]1CCCC[C@@H]1n1ncc(C(=O)N(CC(=O)c2c(Cl)cncc2Cl)CC(C)(C)C)c1C(F)(F)F (stereo in doubt) : IC50 beneath 30 nM, strictly?
Given back: f

Asked: Consider the compound CC(C)(C)CN(CC(=O)c1c(Cl)cncc1Cl)C(=O)c1cnn([C@H]2CC[C@@]3(C(=O)O)CCC[C@H]3C2)c1C(F)(F)F . Is its IC50 strictly less than 30 nM?
Given back: t

Asked: Lab note: confirm whether the reported IC50 for this compound is below 30 nM, equality not counting. compound: CC1(C)CC[C@@H]1N(CC(=O)c1c(Cl)cncc1Cl)C(=O)c1cnn([C@H]2CC[C@](C)(C(=O)O)CC2)c1C(F)(F)F [Example 578]
Given back: f

Asked: Quick check: IC50 of Cc1cc(Cl)c(C(=O)CN(CC2CCC3(CC2)CC3)C(=O)c2cnn([C@H]3CC[C@H](C(=O)O)CC3)c2C(F)(F)F)c(Cl)c1 under 30 nM?
Given back: t

Asked: Below 30 nM on IC50? Entry CC1(CN(CCc2c(Cl)cncc2Cl)C(=O)c2cnn([C@H]3CC[C@](C)(C(=O)O)CC3)c2C(F)(F)F)CCCC1
Given back: t

Asked: Hello, I'm reviewing records and need to know if IC50 of COc1cc(Cl)c(C(=O)CN(Cc2ccc(F)cc2)C(=O)c2cnn([C@H]3CC[C@H](CC(=O)O)CC3)c2C(F)(F)F)c(Cl)c1 is below 30 nM. Could you check?
Given back: t
